- tgt: Induced myeloid leukemia cell differentiation protein Mcl-1 [171-327] (Homo sapiens)
- Construct: 171-327
- Sequence (Q07820 171-327): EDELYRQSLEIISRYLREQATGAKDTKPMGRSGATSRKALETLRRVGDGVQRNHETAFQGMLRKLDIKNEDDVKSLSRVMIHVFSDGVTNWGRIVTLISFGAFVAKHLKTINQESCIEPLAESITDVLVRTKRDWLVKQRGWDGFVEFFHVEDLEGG
- test name: Time-Resolved Fluorescence Resonance Energy Transfer (TR-FRET) Assay
Could you please mark 1.0 for values of IC50 below 0.1 nM and 0.0 for values at or above it?

Asked: Criterion: IC50 strictly below 0.1 nM. Is it met by CO[C@]1(CN2CCN(CC(F)(F)F)CC2)/C=C/C[C@H](C)[C@@H](C)S(=O)(=O)NC(=O)c2ccc3c(c2)N(C[C@@H]2CC[C@H]21)C[C@@]1(CCCc2cc(Cl)ccc21)CO3 [US10821115, Example 93] ?
Given back: 0.0

Asked: Try this compound too: CO[C@@]1(CN2CCN(CCS(C)(=O)=O)CC2)/C=C/C[C@H](C)[C@@H](C)S(=O)(=O)NC(=O)c2ccc3c(c2)N(C[C@@H]2CC[C@H]21)C[C@@]1(CCCc2cc(Cl)ccc21)CO3 [US10821115, Example 81]
Given back: 0.0

Asked: And what about the compound CO[C@@]1(CC(=O)N(C)C2CC2)/C=C/C[C@H](C)[C@@H](C)S(=O)(=O)NC(=O)c2ccc3c(c2)N(C[C@@H]2CC[C@H]21)C[C@@]1(CCCc2cc(Cl)ccc21)CO3 [US10821115, Example 100374] ?
Given back: 0.0

Asked: Try this compound too: CO[C@@]1(CN2CCN(C3CCOCC3)CC2)/C=C/C[C@H](C)[C@@H](C)S(=O)(=O)NC(=O)c2ccc3c(c2)N(C[C@@H]2CC[C@H]21)C[C@@]1(CCCc2cc(Cl)ccc21)CO3 [US10821115, Example 262]
Given back: 1.0

Asked: Another compound to check: CCN(CC)C(=O)C[C@]1(OC)/C=C/C[C@H](C)[C@@H](C)S(=O)(=O)NC(=O)c2ccc3c(c2)N(C[C@@H]2CC[C@H]21)C[C@@]1(CCCc2cc(Cl)ccc21)CO3 [US10821115, Example 100347]
Given back: 0.0

Asked: Same question, CO[C@@]1(CC(=O)NCCO)/C=C/C[C@H](C)[C@@H](C)S(=O)(=O)NC(=O)c2ccc3c(c2)N(C[C@@H]2CC[C@H]21)C[C@@]1(CCCc2cc(Cl)ccc21)CO3 [US10821115, Example 100465] this time
Given back: 0.0
